# System: UACC-62 melanoma
# method_summary: NCI-60 one-dose screen, 48 h
# condition_set: 10 µM unless noted
The panel holds about 83,000 compounds, 20% with a hit somewhere; the sample as a whole holds those more often. The source made the active and inactive calls. How the source made its calls: active means growth percent below 10; inactive means the rest.
Outcomes: t (active), f (inactive)

CCC(C)C1NC(=O)C(CCNCS(=O)(=O)O)NC(=O)C(NC(=O)C(CCNCS(=O)(=O)O)NC(=O)C(NC(=O)C(CCNCS(=O)(=O)O)NC(=O)CCCCC(C)C)C(C)O)CCNC(=O)C(C(C)O)NC(=O)C(CCNCS(=O)(=O)O)NC(=O)C(CCNCS(=O)(=O)O)NC(=O)C(C(C)CC)NC1=O (stereo not drawn) = f
CC1=C([Se]CC(OC(=O)[C@@H](CSSC(C)(C)C)NC(=O)C(C)(C)C)C(=O)NCCCCCC(=O)OCc2ccccc2)C(=O)c2ccccc2C1=O (stereo partly drawn) = t
Cc1onc(-c2ccccc2Cl)c1C(=O)N[C@@H]1C(=O)N2[C@@H]1SC(C)(C)[C@@H]2C(=O)O = f
CC(C)Sc1nc(Cl)c(C#N)c(-c2ccc(F)cc2)n1 = f
COc1ccc2c(c1)[n+](=O)c(C(=O)/C=C/c1cc(OC)c(OC)c(OC)c1)c(C)n2[O-] = f
Cc1ncc(C(=O)Nc2ccc(CN3CCN(C)CC3)c(C(F)(F)F)c2)cc1C#Cc1cncc2ncccc12 = f
CC(=O)N1N=C(c2ccc3c(c2)OCO3)CC1c1c(C)nn(-c2ccccc2)c1N(C)Cc1ccccc1 (stereo not drawn) = f
COc1cc(/C=N/NC(=O)c2ccc(C(F)(F)F)nc2Nc2ccc(Cl)cc2C)ccc1O = f
O=c1c2c(=NCCCN3CCCC3)cc3c(=O)n(CCCN4CCCC4)c(=O)c4c(NCCCN5CCCC5)cc(c(O)n1CCCN1CCCC1)c2c4-3 = t
O=C(N/N=C/c1ccc(Cl)cc1Cl)c1ccccc1Nc1cccc(C(F)(F)F)c1 = f
Nc1ccc(Oc2c(F)c(F)c(Oc3ccc(N)cc3)c(F)c2F)cc1 = f
C1CCC(C(CC2CCCCN2)C2CCCCC2)CC1 (stereo not drawn) = t
O=CN1N=C(c2ccc(Cl)cc2)CC1c1cccc(Nc2ccnc3cc(Cl)ccc23)c1 (stereo not drawn) = f
CCOC(=O)c1cnc2c(C)cc(C)cc2c1NCCCN(C)C = f
COc1cccc(/C=N/Nc2nc3ccccc3s2)c1OC = f
COc1cc(-c2nnc(-c3nc(-c4cc(OC)c(OC)c(OC)c4)n4ccccc34)o2)ccc1N = f
N=C1c2nc3n(c2C(=O)c2nc4n(c21)CCCCC4)CCCCC3 = f
Cc1ccc2nc(SCC(=O)Nc3ccc(-c4nc5ccccc5s4)c(Cl)c3)[nH]c2c1 = f
C#C[C@]1(O)CCC2C3CCc4cc(O)ccc4C3CC[C@@]21C (stereo partly drawn) = f
c1ccc2nc(Cn3c[n+](Cc4ccc5ccccc5n4)c4ccccc43)ccc2c1 = t
Cn1c(N2N=C(c3ccc(Cl)cc3)CC2c2ccccc2)nc(-c2ccccc2)c(C#N)c1=O (stereo not drawn) = f
COc1ccc2nc(NC(=O)CN3CCn4c(nnc4C(F)(F)F)C3)sc2c1 = f
COc1ccc(NC(=O)c2ccccc2-c2ccccc2)c(C(N)=O)c1 = f
COC(=O)c1cc2oc(/C=N\NC(=O)c3cc4oc(C)c(C)c4[nH]3)cc2[nH]1 = f
CC(C)OP(=O)(OC(C)C)c1ncc(-c2ccc(C(F)(F)F)cc2)c(NC2CCCCCC2)n1 = t
COc1ccc([N+](=O)[O-])c(S(=O)(=O)c2ccc(Cl)cc2)n1 = f
CC[C@@H](C)/C=C(C)/C=C/C(=O)c1c(O)c(-c2ccc(O)cc2)cn(OC2CC(=O)CCC(C)OC(=O)CC2O)c1=O (stereo partly drawn) = t
CCSc1nc(-c2ccco2)n2nc(-c3ccco3)cc2n1 = f

====

# Tested on: HCT-116 colon
# method_summary: NCI-60 one-dose screen, 48 h
# condition_set: 10 µM unless noted
Compounds without any hit were thinned out: in the full panel of roughly 83,000, 20% have a hit. The source made the active and inactive calls. The calls were made as follows: active = growth percent below 10; inactive = the rest.
Outcomes: 1 for active, -1 for inactive

[N-]=[N+]=NCc1cccc(/C(O)=C/C(=O)C(=O)O)c1 = -1
CC(=O)Nc1c(Cl)cc2c(c1Cl)Cc1cc([N+](=O)[O-])ccc1-2 = -1
O=C1/C(=C\c2coc3ccccc3c2=O)c2ccccc2N1c1c(Cl)cccc1Cl = -1
CC1CC=CCC1C1OCC(C)(C)CO1 (configuration not stated) = -1
Nc1nc2c(nnn2Cc2ccc(Cl)c(Cl)c2)c(=O)[nH]1 = -1
OCCN1CCN(CCCN2c3ccccc3Sc3ccc(C(F)(F)F)cc32)CC1 = 1
Cn1cnc([N+](=O)[O-])c1Sc1nc(N)nc2nc[nH]c12 = -1
O=C(CNC(=O)c1cccc2ccccc12)Nc1ccccc1Cc1ccccc1 = -1
NS(=O)(=O)c1ccc(N2CC(c3nc4ccccc4[nH]3)CC2=O)cc1 (configuration not stated) = -1
O=C1N=C(N2CCOCC2)S/C1=C\c1cn(-c2ccccc2)nc1-c1ccccc1 = -1
Fc1ccccc1C1c2ccccc2-c2nccn21 (configuration not stated) = -1
O=C(Nc1nc2ccc(OC(F)(F)F)cc2s1)c1ccc(F)cc1 = 1
O=C1CSC(c2ccccc2O)N1c1nnc(Cn2ccnc2)o1 (configuration not stated) = -1
COc1ccc([N+](=O)[O-])c(S(=O)(=O)c2ccc(Cl)cc2)n1 = -1
CC(C)CC1NC(=O)C(CCCN)NC(=O)C(C(C)C)NC(=O)C2CCCN2C(=O)C(Cc2ccccc2)NC(=O)C(CC(C)C)NC(=O)C(CCCN)NC(=O)C(C(C)C)NC(=O)C2CCCN2C(=O)C(Cc2ccccc2)NC1=O (configuration not stated) = 1
C1=C(Cc2ccccc2)n2cnc3ncnc(c32)S1 = -1
CSc1nc(Nc2ccc(S(=O)(=O)Nc3ccon3)cc2)c(C#N)c(-c2ccc(Cl)cc2)n1 = -1
CCOC(=O)c1sc(NC(=O)COc2cccc(/C=C3\CCc4cc(OC)ccc4C3=O)c2)nc1C = -1
COC(=O)c1cc2c(/C=C3/NC(=S)NC3=O)coc2n1C = -1
Cc1c2oc3c(C)ccc(C(=O)OC(C)C4NC(=O)C(C(C)C)N(C)C(=O)CN(C)C(=O)C5CCCN5C(=O)C(C(C)C)NC4=O)c3nc-2c(C(=O)OC(C)C2NC(=O)C(C(C)C)N(C)C(=O)CN(C)C(=O)C3CCCN3C(=O)C(C(C)C)NC2=O)c(N)c1=O (configuration not stated) = 1
C[C@H]1O[C@@H](O[C@H]2[C@@H](O)C[C@H](O[C@H]3[C@@H](O)C[C@H](O[C@H]4CC[C@]5(C)C6C[C@@H](O)[C@]7(C)[C@@H](C8=CC(=O)OC8)CC[C@]7(O)C6CC[C@@H]5C4)O[C@@H]3C)O[C@@H]2C)C[C@H](O)[C@@H]1O (some centres not stated) = 1
COc1cc(/C=C/C(=O)C(C(=O)/C=C/c2ccc(OC(=O)CCNc3nnc(C)s3)c(OC)c2)C(=O)CCNc2nnc(C)s2)ccc1OC(=O)CCNc1nnc(C)s1 = 1
Cn1c(=O)c2[nH]c(=S)n(Cc3ccccc3)c2n(C)c1=O = -1
O=C(CNc1ccc2c(c1)C(=O)c1ccccc1C2=O)Nc1ccc2c(c1)C(=O)c1ccccc1C2=O = 1
CC(C)CNc1nc(N=[N+]=[N-])nc(NCC(C)C)n1 = -1
CC(C)=CCCC(C)c1ccc(C)c2c1OCN(CC1CCNCC1)C2 (configuration not stated) = 1
CCOC(=O)C(C(=O)OCC)C1CCCCC1 = -1
Cc1ccc(-c2c3c(N)c4c(nc3nc3c2c(C)nn3-c2ccccc2)CCC4)cc1 = 1
CC(=O)/C(=C/c1ccc(Cl)cc1)C(=O)c1ccccc1 = -1
COc1ccc2c(c1)sc1nc(-c3ccc(Br)cc3)cn12 = -1
O=C(Nc1nn2c(-c3cc(C(F)(F)F)cc(C(F)(F)F)c3)nnc2s1)C1CCCC1 = 1
c1ccc(-c2nc(Nc3nccnn3)c3ccccc3n2)cc1 = -1

====

# Tested on: SNB-19 CNS
# method_summary: NCI-60 one-dose screen, 48 h
# condition_set: 10 µM unless noted
This is part of a sample that, as a whole, favours compounds with a hit. Of some 83,000 tested, about 20% had one in any assay. Calls of active or inactive are those of the source. How the source made its calls: active means growth percent below 10; inactive means the rest.
Outcomes: 1 for active, -1 for inactive

C[C@@H]1CN(c2nc3c(cc2F)c(=O)c(C(=O)O)cn3C(C)(C)C)C[C@H](C)N1 = -1
COC(=O)[C@H](Cc1cn(C)cn1)NC(=O)[C@H](Cc1ccccc1)NC(=O)Nc1cc(C(F)(F)F)cc(C(F)(F)F)c1 = 1
COc1ccc(OC)c(CCn2cncc2-c2c[nH]c3cc(Br)ccc23)c1 = -1
C[C@H]1c2cccc(O)c2C(O)=C2C(=O)[C@]3(O)C(O)=C(C(N)=O)C(=O)[C@@H](N(C)C)[C@@H]3[C@@H](O)[C@@H]21 = -1
Cc1ccc2nc(SCC(=O)Nc3ccc(-c4nc5ccccc5s4)c(Cl)c3)[nH]c2c1 = -1
CCCCCc1c(C)[nH]c(/C=C2\N=C(c3ccc[nH]3)C=C2OCc2ccccc2)c1C = 1
COc1cc(C(=O)/C=C/c2cccc(Nc3ccnc4cc(Cl)ccc34)c2)cc(OC)c1OC = -1
COC(=O)[C@H](Cc1cnc[nH]1)NC(=O)[C@@H](NC(=O)Nc1cc(C(F)(F)F)cc(C(F)(F)F)c1)C(C)C = 1
CCN(CC)c1ccc(/C=C/C(=O)c2cccc(NS(C)(=O)=O)c2)cc1 = -1
COc1cccc(-c2nc(-c3ccc(N)cc3)co2)c1 = -1
O=C1/C(=C/c2ccccc2O)C(=S)SN1Cc1ccco1 = -1
O=C(/C=C/c1ccc([N+](=O)[O-])cc1)c1ccc2c3c(cccc13)CC2 = -1
